Target: [GSPT1]-[compound of formula (I)]-[CRBN/DDB1] complex (Homo sapiens, UniProt P15170+Q96SW2)
Sequence (P15170 whole entry): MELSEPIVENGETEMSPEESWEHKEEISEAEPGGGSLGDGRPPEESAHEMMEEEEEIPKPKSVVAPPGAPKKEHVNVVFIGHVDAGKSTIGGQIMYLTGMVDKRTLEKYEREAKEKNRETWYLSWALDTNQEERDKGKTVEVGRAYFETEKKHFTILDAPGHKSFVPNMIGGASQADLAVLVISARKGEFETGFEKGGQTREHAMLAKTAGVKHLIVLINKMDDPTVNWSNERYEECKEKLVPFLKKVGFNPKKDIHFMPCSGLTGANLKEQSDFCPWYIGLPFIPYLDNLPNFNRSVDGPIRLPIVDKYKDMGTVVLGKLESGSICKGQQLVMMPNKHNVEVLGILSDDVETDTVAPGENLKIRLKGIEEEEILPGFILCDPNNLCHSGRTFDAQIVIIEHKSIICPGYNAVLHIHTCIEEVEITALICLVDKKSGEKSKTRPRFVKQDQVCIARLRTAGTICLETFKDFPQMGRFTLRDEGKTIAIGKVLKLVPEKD
Sequence (Q96SW2 whole entry): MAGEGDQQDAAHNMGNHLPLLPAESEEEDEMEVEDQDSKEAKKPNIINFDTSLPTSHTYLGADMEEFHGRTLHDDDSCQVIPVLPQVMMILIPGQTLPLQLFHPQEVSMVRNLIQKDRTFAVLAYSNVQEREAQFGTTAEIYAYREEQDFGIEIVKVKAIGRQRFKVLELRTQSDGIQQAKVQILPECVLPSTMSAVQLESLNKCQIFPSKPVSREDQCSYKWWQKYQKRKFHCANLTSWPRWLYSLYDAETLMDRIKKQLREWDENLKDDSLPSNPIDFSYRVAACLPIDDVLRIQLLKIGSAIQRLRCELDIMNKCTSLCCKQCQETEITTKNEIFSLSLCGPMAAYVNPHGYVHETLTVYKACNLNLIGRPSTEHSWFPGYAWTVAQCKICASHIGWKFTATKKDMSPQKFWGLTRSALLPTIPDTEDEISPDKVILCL
Sequence (Q16531 whole entry partner): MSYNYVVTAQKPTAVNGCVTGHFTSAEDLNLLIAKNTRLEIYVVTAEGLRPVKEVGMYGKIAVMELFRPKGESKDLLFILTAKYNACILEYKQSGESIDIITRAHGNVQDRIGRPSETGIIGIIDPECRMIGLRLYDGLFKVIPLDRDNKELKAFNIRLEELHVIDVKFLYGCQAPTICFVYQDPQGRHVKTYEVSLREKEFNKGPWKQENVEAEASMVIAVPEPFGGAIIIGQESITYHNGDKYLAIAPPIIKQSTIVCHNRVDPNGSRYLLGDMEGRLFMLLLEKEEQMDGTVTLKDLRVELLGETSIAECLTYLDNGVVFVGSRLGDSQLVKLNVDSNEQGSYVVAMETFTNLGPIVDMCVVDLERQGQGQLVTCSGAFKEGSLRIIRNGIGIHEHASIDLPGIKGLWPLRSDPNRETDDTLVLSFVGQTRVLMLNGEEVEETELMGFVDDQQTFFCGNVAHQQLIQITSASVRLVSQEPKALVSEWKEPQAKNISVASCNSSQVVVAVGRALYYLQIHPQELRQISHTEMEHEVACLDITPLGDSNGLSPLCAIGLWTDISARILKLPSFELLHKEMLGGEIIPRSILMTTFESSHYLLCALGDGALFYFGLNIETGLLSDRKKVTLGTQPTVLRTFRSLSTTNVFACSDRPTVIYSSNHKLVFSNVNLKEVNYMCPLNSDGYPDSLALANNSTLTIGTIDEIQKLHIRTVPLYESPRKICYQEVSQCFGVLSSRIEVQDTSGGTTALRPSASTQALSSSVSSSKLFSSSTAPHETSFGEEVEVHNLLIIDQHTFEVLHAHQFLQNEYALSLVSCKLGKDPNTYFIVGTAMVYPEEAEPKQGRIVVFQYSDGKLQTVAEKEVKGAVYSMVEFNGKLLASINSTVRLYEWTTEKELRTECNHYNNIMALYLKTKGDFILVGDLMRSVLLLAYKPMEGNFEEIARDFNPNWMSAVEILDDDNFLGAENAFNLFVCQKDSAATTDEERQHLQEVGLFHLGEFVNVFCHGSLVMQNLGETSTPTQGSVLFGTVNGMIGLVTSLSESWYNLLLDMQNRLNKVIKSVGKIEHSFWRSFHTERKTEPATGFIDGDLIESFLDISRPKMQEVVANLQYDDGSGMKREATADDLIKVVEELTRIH
Test: AlphaLISA ternary complex formation assay (GSPT1)
Format: binding
Settings: 0.5 h; 1 μM compound; normalized to reference compound CC-885; read-out: Normalized AlphaLISA ternary complex average signal at 1 μM molecule
readout-label: activation at 1 µM

>>> recorded_measurement("Cc1nc2cc(COC(=O)Nc3cc(Cl)c(C)c(CN4CCOCC4)c3)ccc2cc1C1CCC(=O)NC1=O (stereo not shown)")
"10 to 50%"
>>> recorded_measurement("Cc1nc2cc(COC(=O)Nc3ccc(C(C)(C)C)cc3)ccc2cc1C1CCC(=O)NC1=O (stereo not shown)")
"> 50%"
>>> recorded_measurement("Cc1ccc(NC(=O)NCc2ccc3cc(N4CCC(=O)NC4=O)c(C)nc3c2)cc1Cl")
"10 to 50%"

Next molecule, activation at 1 µM to be filled in.
activation at 1 µM lookup needed for Cc1ccc(-c2nnc(NCc3ccc4cc(C5CCC(=O)NC5=O)c(C)nc4c3)o2)cc1Cl (stereo not shown) , thanks.
10 to 50%
